Reference source: patent US7074789B2

For FGFR1 (Homo sapiens), measured IC50 is reported for the entries below.
READOUT_LABEL: IC50

SMILES_TEXT	READOUT_LABEL	READOUT_VALUE
COc1cc(Nc2ncnc(-n3c(=O)[nH]c4ccccc43)n2)cc(OC)c1OCCN1CCOCC1	IC50	0.81 to 4.86 µM
COc1cc(Nc2ncnc(Nc3ccc(Cl)c4ccccc34)n2)cc(OC)c1OC	IC50	0.913 to 5.48 µM
COc1cc(Nc2ncnc(-n3c(Nc4cc(C)n[nH]4)nc4ccccc43)n2)cc(OC)c1OC	IC50	< 0.845 µM
COc1cc2ccn(-c3ncnc(Nc4cc(OC)c(OC)c(OC)c4)n3)c2cc1OC	IC50	> 10.3 µM
COc1cc(Nc2ncnc(-n3c(Nc4ccc(F)cc4)nc4ccccc43)n2)cc(OC)c1OC	IC50	0.821 to 4.92 µM
COc1cc(Nc2ncnc(Nc3cc(-c4ccccc4)n[nH]3)n2)cc(OC)c1OC	IC50	0.954 to 5.72 µM
COc1cc(Nc2ncnc(N3CCCCC3)n2)cc(OC)c1OC	IC50	> 13 µM
COc1cc(Nc2ncnc(-n3c(NCc4ccccc4Cl)nc4ccccc43)n2)cc(OC)c1OC	IC50	0.772 to 4.63 µM

====

# TARGET: IGFR-1 (Homo sapiens)
# Construct: Kinases are expressed as either kinase domains or full length constructs; made in house
# MEASUREMENT_NOTES: Kinase inhibition assay, IGFR-1 (Table 2)
# Format: biochemical
# CONDITION_DETAILS: Table 2, kinase inhibition class
// values below are reported IC50

SMILES_TEXT	IC50
COc1cc(Nc2ncnc(Nc3ccc(OCC(=O)Nc4ccccc4)cc3)n2)cc(OC)c1OC	0.796 to 4.78 µM
COc1ccc(CNc2nc3ccccc3n2-c2ncnc(Nc3cccc(Cc4nnn[nH]4)c3)n2)cc1	0.791 to 4.75 µM
COc1cc(Nc2ncnc(Nc3cccc(CC(=O)O)c3)n2)cc(OC)c1OC	> 10.9 µM
Nc1nc2ccccc2n1-c1ncnc(Nc2cccc(CC(=O)O)c2)n1	< 1.11 µM
COc1cc(Nc2ncnc(Nc3ccc4c(cnn4Cc4ccccc4)c3)n2)cc(OC)c1OCCN1CCOCC1	0.687 to 4.12 µM
COC(=O)Cc1cccc(Nc2ncnc(-n3c(NCc4ccc(OC)cc4)nc4ccccc43)n2)c1	> 9.08 µM
COc1cc(Nc2ncnc(-n3c(C)nc4ccccc43)n2)cc(OC)c1OC	< 1.02 µM
CN(c1cccc(Cl)c1)c1ncnc(N[C@@H]2CCN(Cc3ccccc3)C2)n1	> 11.4 µM

====

// values below are reported pIC50
# TARGET: PDGFRB (Homo sapiens, UniProt P09619)
# Construct: Kinases are expressed as either kinase domains or full length constructs; made in house
# Sequence (P09619 33-1106, species assumed): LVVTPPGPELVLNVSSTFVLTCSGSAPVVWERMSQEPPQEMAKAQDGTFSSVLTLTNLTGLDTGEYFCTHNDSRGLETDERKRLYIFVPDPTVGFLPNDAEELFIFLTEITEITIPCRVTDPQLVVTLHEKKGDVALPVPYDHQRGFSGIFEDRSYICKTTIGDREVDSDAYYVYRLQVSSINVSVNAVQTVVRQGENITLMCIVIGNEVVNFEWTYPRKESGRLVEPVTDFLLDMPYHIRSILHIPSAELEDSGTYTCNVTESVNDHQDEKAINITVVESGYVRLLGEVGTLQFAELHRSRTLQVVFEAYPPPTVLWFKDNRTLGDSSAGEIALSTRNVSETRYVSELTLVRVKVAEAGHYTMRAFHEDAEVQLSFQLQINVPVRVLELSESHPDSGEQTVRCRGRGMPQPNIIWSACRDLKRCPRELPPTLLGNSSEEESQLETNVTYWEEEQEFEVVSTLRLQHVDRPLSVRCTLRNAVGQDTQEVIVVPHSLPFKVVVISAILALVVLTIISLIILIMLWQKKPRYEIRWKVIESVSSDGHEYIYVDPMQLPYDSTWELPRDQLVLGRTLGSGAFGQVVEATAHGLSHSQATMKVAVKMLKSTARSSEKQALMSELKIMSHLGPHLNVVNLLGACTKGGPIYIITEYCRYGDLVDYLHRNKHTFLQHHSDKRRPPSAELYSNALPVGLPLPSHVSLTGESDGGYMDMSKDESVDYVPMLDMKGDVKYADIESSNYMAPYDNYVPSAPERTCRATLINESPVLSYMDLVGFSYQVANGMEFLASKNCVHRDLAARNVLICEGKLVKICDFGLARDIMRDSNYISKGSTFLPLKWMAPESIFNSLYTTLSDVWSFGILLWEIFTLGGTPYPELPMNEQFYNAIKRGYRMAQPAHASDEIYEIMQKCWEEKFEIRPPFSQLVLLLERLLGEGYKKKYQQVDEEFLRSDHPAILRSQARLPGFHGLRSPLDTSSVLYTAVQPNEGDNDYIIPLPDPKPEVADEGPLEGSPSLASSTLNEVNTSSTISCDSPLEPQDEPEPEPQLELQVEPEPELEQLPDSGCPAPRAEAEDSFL
# MEASUREMENT_NOTES: Kinase inhibition assay (33P transfer), PDGFRB
# Type: biochemical
# CONDITION_DETAILS: read-out: PDGFRB-1
pIC50: −log10 of the molar value.

SMILES_TEXT	pIC50
Cc1ccc(Nc2ncnc(Nc3cccc(CC(=O)O)c3)n2)cc1O	5.17 to 5.94
COc1cc(Nc2ncnc(-c3cccnc3Nc3cc(Cl)cc(Cl)c3)n2)cc(OC)c1OC	< 5.05
COc1cc(Nc2ncnc(Nc3cc(Cl)ccc3C)n2)cc(OC)c1OC	> 6.00
Cc1ccc(-c2cc(Nc3ncnc(Nc4cc(C)ccc4C)n3)[nH]n2)cc1	5.19 to 5.97
CN(c1cccc(Cl)c1)c1ncnc(Nc2ccc(C(F)(F)F)cc2)n1	< 4.93
COc1cc(Nc2ncnc(-n3c(Nc4ccccc4C(C)C)nc4ccccc43)n2)cc(OC)c1OC	5.33 to 6.11
COc1ccc2c(c1)CCCN2c1ncnc(Nc2cc(OC)c(OC)c(OC)c2)n1	> 6.02
CN(c1cccc(Cl)c1)c1ncnc(Nc2ccc3nn(Cc4ccccc4)cc3c2)n1	5.27 to 6.04

====

# TARGET: ErbB2 (Homo sapiens)
# Sequence (P04626 23-1255, species assumed): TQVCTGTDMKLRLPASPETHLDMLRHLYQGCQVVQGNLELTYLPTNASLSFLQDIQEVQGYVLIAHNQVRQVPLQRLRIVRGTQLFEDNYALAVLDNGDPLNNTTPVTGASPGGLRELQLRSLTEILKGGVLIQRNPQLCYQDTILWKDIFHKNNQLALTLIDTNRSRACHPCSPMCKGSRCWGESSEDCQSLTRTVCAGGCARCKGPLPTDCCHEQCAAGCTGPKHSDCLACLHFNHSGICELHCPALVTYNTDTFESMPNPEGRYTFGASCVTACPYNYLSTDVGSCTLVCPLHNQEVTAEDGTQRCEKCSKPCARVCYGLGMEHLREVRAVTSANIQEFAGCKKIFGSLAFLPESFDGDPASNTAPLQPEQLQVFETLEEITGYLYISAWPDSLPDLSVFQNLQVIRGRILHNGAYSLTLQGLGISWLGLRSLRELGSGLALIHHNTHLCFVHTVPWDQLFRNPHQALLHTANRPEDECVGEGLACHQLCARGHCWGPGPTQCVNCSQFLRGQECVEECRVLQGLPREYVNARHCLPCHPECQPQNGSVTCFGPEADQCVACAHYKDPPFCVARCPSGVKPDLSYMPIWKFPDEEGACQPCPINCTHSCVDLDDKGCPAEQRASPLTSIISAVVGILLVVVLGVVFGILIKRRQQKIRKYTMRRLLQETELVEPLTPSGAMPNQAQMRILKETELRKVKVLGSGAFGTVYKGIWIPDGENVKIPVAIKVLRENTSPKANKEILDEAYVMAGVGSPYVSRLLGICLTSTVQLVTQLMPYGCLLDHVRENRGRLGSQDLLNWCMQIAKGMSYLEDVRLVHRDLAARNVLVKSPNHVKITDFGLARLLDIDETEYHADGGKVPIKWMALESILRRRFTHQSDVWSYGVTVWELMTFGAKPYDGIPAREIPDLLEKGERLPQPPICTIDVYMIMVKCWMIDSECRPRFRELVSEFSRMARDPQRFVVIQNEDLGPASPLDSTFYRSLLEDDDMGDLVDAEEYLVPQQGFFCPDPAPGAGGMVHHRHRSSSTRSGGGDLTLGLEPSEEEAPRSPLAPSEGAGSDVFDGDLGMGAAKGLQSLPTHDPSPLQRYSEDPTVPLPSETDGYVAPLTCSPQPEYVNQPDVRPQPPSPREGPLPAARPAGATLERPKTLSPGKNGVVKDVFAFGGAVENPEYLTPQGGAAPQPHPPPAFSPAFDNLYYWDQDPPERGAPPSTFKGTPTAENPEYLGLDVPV
// values below are reported IC50
READOUT_LABEL: IC50

COMPOUND	READOUT_VALUE
COC(=O)c1ccc(-c2cc(Nc3ncnc(NCc4ccccc4F)n3)[nH]n2)cc1	> 10.7 µM
c1ccc(CNc2nc3ccccc3n2-c2ncnc(Nc3cccc(Cn4ccnn4)c3)n2)nc1	7.36 to 9.46 µM
COC(=O)c1ccc(-c2cc(Nc3ncnc(Nc4cc(=O)n(-c5ccccc5)[nH]4)n3)[nH]n2)cc1	5.11 to 7.46 µM
COc1cc(Nc2ncnc(-n3c(NCc4ccc(F)cc4)nc4ccccc43)n2)cc(OC)c1OC	> 8.97 µM
Cc1ccc2c(c1)CCCN2c1ncnc(NCc2cccnc2)n1	> 13.5 µM
CC(=O)Nc1ccc(Nc2ncnc(N3CCCc4cc(C)ccc43)n2)cc1	1.07 to 6.41 µM
Cc1ccc(Cl)cc1Nc1ncnc(N2c3ccc(F)cc3CCC2C)n1 (centres unmarked)	> 11.7 µM
Nc1nc2ccccc2n1-c1ncnc(Nc2cccnc2)n1	> 14.8 µM
COc1cc(Nc2ncnc(NC(=O)NCc3ccccc3)n2)cc(OC)c1OC	5.85 to 8.53 µM
Cc1cccc(Nc2ncnc(N3CCCc4ccc(C(F)(F)F)cc43)n2)c1	1.04 to 6.23 µM
COc1cc(Nc2ncnc(-c3c(O)[nH]c4ccc(Cl)cc34)n2)cc(OC)c1OC	5.61 to 8.18 µM
COc1cc(Nc2ncnc(-c3cccnc3Nc3ccccc3C)n2)cc(OC)c1OC	> 10.1 µM
O=C(O)CCc1cccc(Nc2ncnc(Nc3cc(-c4ccco4)[nH]n3)n2)c1	1.02 to 6.13 µM
COc1ccc(CNc2nc3ccccc3n2-c2ncnc(Nc3cccc(C(=O)O)c3)n2)cc1	> 9.63 µM
NC(=O)c1ccc(Nc2ncnc(-c3cccnc3NCc3ccccc3)n2)cc1	> 11.3 µM
COc1cc(Nc2ncnc(Nc3cc(-c4ccco4)[nH]n3)n2)cc(C(F)(F)F)c1	0.958 to 5.75 µM
COc1cc(Nc2ncnc(-c3cccnc3NC(C)c3cccc4ccccc34)n2)cc(OC)c1OC (centres unmarked)	4.72 to 6.88 µM

====

# TARGET: c-Met (Homo sapiens, UniProt P08581)
# Construct: Kinases are expressed as either kinase domains or full length constructs; made in house
# Sequence (P08581 25-1390): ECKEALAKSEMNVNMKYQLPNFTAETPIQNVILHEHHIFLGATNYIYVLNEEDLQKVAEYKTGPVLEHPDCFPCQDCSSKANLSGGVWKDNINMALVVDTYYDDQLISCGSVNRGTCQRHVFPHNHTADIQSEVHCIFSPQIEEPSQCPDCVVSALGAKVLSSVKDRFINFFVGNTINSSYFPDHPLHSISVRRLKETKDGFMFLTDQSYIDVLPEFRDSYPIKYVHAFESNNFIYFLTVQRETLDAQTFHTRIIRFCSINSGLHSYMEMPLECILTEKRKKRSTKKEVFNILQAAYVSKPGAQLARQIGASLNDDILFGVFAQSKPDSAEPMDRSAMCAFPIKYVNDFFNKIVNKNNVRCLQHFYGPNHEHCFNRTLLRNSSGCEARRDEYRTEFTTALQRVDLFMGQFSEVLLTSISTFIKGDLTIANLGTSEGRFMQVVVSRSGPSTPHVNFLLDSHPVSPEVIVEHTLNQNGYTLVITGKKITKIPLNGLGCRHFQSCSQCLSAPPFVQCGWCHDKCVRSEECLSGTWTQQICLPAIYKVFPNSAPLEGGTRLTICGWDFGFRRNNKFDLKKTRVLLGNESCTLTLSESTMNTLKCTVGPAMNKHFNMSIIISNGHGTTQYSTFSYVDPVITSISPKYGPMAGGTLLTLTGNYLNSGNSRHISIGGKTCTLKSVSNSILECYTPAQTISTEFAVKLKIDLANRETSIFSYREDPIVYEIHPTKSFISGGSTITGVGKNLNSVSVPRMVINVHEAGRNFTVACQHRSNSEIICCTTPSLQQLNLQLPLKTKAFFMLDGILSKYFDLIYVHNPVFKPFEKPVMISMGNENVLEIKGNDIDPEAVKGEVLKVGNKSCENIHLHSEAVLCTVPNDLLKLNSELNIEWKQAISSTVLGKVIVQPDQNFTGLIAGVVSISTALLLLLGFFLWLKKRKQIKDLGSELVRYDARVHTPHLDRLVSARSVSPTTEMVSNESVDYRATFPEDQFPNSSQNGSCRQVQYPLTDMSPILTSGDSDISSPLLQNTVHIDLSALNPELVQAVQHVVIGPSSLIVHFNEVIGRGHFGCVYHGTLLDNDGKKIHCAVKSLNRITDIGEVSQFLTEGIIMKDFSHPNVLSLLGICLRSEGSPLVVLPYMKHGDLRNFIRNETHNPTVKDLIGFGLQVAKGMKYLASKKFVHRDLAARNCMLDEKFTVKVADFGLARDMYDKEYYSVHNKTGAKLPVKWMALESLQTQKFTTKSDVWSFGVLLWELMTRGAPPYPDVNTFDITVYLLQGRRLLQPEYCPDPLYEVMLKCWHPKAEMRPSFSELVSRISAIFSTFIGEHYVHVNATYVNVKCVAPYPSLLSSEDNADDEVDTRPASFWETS
# MEASUREMENT_NOTES: Kinase inhibition assay (33P transfer), c-Met
# Format: biochemical
# CONDITION_DETAILS: Table 2, kinase inhibition class; read-out: Met-1
READOUT_LABEL: IC50

SMILES_TEXT	READOUT_LABEL	READOUT_VALUE
COc1cc(Nc2ncnc(-n3c(NCc4cccc(F)c4)nc4ccccc43)n2)cc(OC)c1OC	IC50	> 8.97 µM
COc1cc(Nc2ncnc(-n3c(NC(C)(C)c4ccccc4)nc4ccccc43)n2)cc(OC)c1OC	IC50	> 8.8 µM
COC(=O)c1ccc(-c2cc(Nc3ncnc(Nc4cc(OC)c(OC)c(OC)c4)n3)[nH]n2)cc1	IC50	< 0.838 µM
COc1cc(Nc2ncnc(-c3c(O)[nH]c4ccccc34)n2)cc(OC)c1OC	IC50	> 11.4 µM
COc1ccc(N(C)c2ncnc(-n3c(N)nc4ccccc43)n2)cc1	IC50	> 13 µM
COc1cc(Nc2ncnc(-n3c(NCc4ccccc4)nc4ccccc43)n2)cc(OC)c1OC	IC50	> 9.31 µM
CN(c1ccc(F)c(Cl)c1)c1ncnc(Nc2cccc(Br)c2)n1	IC50	> 11 µM
COc1cc(Nc2ncnc(N[C@@H]3CCCc4ccccc43)n2)cc(OC)c1OC	IC50	5.89 to 8.59 µM

====

# TARGET: IGFR-1 (Homo sapiens, UniProt P08069)
# Construct: Kinases are expressed as either kinase domains or full length constructs; made in house
# Sequence (P08069 31-1367): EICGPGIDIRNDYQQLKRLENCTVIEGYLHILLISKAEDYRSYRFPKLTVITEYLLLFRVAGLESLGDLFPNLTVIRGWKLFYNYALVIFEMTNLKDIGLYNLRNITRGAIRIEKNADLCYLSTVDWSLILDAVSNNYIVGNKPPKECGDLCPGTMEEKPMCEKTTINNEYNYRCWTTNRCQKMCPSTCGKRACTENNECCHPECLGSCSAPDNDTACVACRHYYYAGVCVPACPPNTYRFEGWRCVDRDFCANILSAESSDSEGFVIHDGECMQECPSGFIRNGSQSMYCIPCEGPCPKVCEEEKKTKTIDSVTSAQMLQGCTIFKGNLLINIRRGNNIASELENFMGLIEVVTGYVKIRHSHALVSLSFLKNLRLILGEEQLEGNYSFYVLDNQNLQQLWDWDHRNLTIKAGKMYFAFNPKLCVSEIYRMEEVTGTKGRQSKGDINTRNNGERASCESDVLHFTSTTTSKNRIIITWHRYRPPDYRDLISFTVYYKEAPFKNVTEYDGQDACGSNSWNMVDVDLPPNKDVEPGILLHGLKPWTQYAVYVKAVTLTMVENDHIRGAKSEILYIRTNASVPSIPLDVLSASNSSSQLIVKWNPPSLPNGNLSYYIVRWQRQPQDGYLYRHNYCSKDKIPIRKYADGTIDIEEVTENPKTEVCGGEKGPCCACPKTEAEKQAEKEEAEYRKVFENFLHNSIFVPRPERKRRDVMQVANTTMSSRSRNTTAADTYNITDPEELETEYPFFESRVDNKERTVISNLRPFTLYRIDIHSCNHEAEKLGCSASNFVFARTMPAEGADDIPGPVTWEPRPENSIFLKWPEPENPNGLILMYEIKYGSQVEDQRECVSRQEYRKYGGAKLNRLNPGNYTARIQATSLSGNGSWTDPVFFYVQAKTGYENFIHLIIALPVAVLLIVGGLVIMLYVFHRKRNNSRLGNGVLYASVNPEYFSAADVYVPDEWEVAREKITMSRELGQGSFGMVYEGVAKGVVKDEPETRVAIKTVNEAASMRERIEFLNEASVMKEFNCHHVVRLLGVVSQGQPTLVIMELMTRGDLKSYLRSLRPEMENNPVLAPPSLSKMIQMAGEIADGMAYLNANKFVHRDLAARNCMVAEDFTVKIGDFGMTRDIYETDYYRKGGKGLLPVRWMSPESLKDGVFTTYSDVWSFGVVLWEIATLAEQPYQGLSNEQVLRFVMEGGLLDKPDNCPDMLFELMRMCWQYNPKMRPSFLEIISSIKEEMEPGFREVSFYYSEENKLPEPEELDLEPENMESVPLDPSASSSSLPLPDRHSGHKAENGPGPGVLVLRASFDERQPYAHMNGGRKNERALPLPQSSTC
# MEASUREMENT_NOTES: Kinase inhibition assay, IGFR-1 (Table 2)
# Type: biochemical
# CONDITION_DETAILS: Table 2, kinase inhibition class
pIC50: −log10 of the molar value.
// values below are reported pIC50

MOLECULE	pIC50
Cc1ccc2c(c1)CCCN2c1ncnc(Nc2cccc(Cl)c2C)n1	< 4.91
COc1ccc(Nc2ncccc2-c2ncnc(Nc3cc(OC)c(OC)c(OC)c3)n2)c(C)c1	< 5.02
N#CCc1ccc(Nc2ncnc(Nc3ccc4c(cnn4Cc4ccccc4)c3)n2)cc1	5.26 to 6.03
COC(=O)c1ccc(-c2cc(Nc3ncnc(Nc4cc(OC)c(OC)c(OC)c4)n3)[nH]n2)cc1	> 6.08
COc1ccc(CCNc2ncnc(N3CCCc4cc(C)ccc43)n2)cc1OC	< 4.95
CCOC(=O)CNc1ncnc(N2CCCc3cc(C)ccc32)n1	< 4.86
COc1cc(Nc2ncnc(-n3c(NCc4ccc5c(c4)OCO5)nc4ccccc43)n2)cc(OC)c1OC	< 5.07
COC(=O)Cc1cccc(Nc2ncnc(-n3c(N)nc4ccccc43)n2)c1	> 5.97
COc1cc(Nc2ncnc(-n3c(Nc4cccc5cccnc45)nc4ccccc43)n2)cc(OC)c1OC	5.06 to 5.17
CNS(=O)(=O)Cc1ccc(Nc2ncnc(Nc3ccc4c(cnn4Cc4ccccc4)c3)n2)cc1	5.32 to 6.10
COc1cc(Nc2ncnc(NC3CC3c3ccccc3)n2)cc(OC)c1OCCN1CCOCC1 (centres unmarked)	5.31 to 6.09
COc1cc(Nc2ncnc(-n3c(NCc4ccc(Cl)cc4F)nc4ccccc43)n2)cc(OC)c1OC	5.08 to 5.19
NC(=O)Cc1cccc(Nc2ncnc(-n3c(N)nc4ccccc43)n2)c1	> 5.95
COc1cc(Nc2ncnc(-n3c(NC(C)(C)c4ccccc4)nc4ccccc43)n2)cc(OC)c1OC	< 5.06
COc1cc(Nc2ncnc(NCc3ccccc3)n2)cc(OC)c1OC	4.91 to 5.02
COc1cc(Nc2ncnc(-c3cccnc3NCc3ccccc3F)n2)cc(OC)c1OC	< 5.01
COc1cc(Nc2ncnc(Nc3cccc(C(C)=O)c3)n2)cc(OC)c1OC	5.22 to 5.99
